The values you see were collected from the supplement of paper PMC9732359.

# key: entry, value: protein stability index
# methodNotes: protein stability index of a GFP-peptide fusion (yeast GPS) (PSI 1-4); higher = more stable; sorted into four equal gates, so the index is relative within each strain
# appliedConditions: ubr1∆
Write the number on its own, no unit after it.

# annotated cases, reported protein stability index shown
PKIDEDDTWYNLTEFVQ [AAR2]; 3.07
FVIPALPAAVSKSLQES [RPC82]; 2.04
EPNLAAQQDSTNVRLYS [ECM29]; 2.37
QELKLTCVAKKGIAKEH [RPB3]; 2.96
DQPQSSEAKRTKFSNPA [BRR2]; 3.13
TCPGLSLTDVAFFTYDA [ECM29]; 3.11

input: What measured protein stability index goes with DPPIIIFINYKQTADWL [PRP28] ?
output: 1.95

input: Would you mind doing QHEQGTFEKHDRVEDIC [RRI2] as well?
output: 2.97

input: Would you mind doing VLSIPPANHLQSDFCLS [YGL100W/SEH1] as well?
output: 2.59
